Origin of values: ChEMBL document CHEMBL4334488

target: UniProt:Q9H3N8; assay: Binding affinity to human H4R
Sequence (Q9H3N8 whole entry): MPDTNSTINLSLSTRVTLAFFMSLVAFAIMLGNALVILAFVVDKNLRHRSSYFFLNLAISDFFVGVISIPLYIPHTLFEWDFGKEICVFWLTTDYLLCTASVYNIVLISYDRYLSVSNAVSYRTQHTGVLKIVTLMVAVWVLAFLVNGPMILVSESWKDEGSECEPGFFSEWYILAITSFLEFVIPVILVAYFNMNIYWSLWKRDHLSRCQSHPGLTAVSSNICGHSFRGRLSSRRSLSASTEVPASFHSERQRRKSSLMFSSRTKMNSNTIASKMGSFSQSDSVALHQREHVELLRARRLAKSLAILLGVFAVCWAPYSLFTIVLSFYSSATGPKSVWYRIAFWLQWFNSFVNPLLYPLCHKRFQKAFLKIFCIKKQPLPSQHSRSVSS
Readout type: Ki (nM)
The answer is to be given in nM; state only the numeric part.

Case NC(=NCCc1ccc(I)cc1)SCCCc1cnc[nH]1 [IODOPHENPROPIT] , UniProt:Q9H3N8, Ki recorded as 12.6

====

biological target: UniProt:Q9H3N8; assay: Displacement of 40 nM [3H]-histamine from human H4R expressed in Sf9 cell membranes co-expressing Gia2 and beta1gamma2 by competition binding assay
Readout type: Ki (nM)
The answer is to be given in nM; state only the numeric part.

[
  {
    "Smiles structure": "CC(C)(C)CNc1nccc(NCCc2c[nH]cn2)n1",
    "Experimental value": 204
  }
]

Now look at this entry.
The compound listed as CC(C)(C)CNc1nccc(NC2CCNCC2)n1 has a reported Ki of 1910
